// data source = PubChem BioAssay (NCI)

system: HCT-15 colon; assay: NCI tumour cell line growth inhibition, 48 h
As shown below, each of these compounds has a reported TGI value.

Sample answers from the record:
NC1CCCCC1N.Nc1c(N=Nc2ccc(-c3ccc(N=Nc4cc(S(=O)(=O)[O-])c5ccccc5c4N)cc3)cc2)cc(S(=O)(=O)[O-])c2ccccc12.[OH3+].[OH3+].[Pt+4] :: > 59.6 µM
CCCCCCCCCCCCCC(=O)OC1C(O)C(CO)OC(OC)C1NC(=O)N(CCCl)N=O (stereo unspecified) :: > 100 µM
CN(C)c1cc[n+](/C(NS(=O)(=O)c2cc(C(=O)Nc3ccc(Cl)cc3)c(Cl)cc2[S-])=C(\C#N)C(=O)c2ccccc2)cc1 :: 65.1 µM

Then this compound:
Entry "COc1ccc(CC#C/C=C/C(=O)NCC(C)C)cc1" has what TGI?
> 100 µM

----------
As shown below, each of these molecules has a reported TGI value.
system: OVCAR-5 ovarian; test: NCI tumour cell line growth inhibition, 48 h

Sample answers from the record:
COc1ccc(/C=C/C(=O)c2cc3c(N)c(C(=O)Nc4cccc(Cl)c4C)sc3nc2C)cc1 :: > 50 µM
CC(C)(C)c1ccc(C(C)(C)C)c(N2C(=O)[C@@H]3[C@@H]4C=C[C@@H](C4)[C@]3(C)C2=O)c1 :: > 100 µM

Reported TGI for OVCAR-5 ovarian, given "O=c1c(-c2ccccc2)c2n(c3ccccc13)CCN2" ?
> 100 µM

Moving on to the next molecule: "C=Cc1nc2nnc(CCCCCCCCc3nnc4nc(C=C)[nH]n34)n2[nH]1"
> 100 µM

Moving on to the next molecule: "COc1ccc(CC#C/C=C/C(=O)NCC(C)C)cc1"
> 100 µM

----------
test system: BT-549 breast; assay: NCI tumour cell line growth inhibition, 48 h
experimental.readout: GI50

Sample answers from the record:
CC1(C)CN(c2cc(C(F)(F)F)cc3cncn23)CCC12NC(=O)NC2=O (configuration not stated) :: 23.2 µM
Clc1ccc2c(c1)C(Br)c1cc(Cl)cc(Cl)c1-2 (configuration not stated) :: 3.56 µM
O=C(/C=C/c1ccc(Cl)cc1)c1ccc(Nc2nc(Nc3ccc(F)cc3)nc(Nc3ccc(F)cc3)n2)cc1 :: 19 µM

Entry "Nc1nonc1C(=Nc1ccc(F)c(Cl)c1)NO" has what GI50?
29.8 µM

Moving on to the next compound: "O=c1c2cc(F)ccc2sc2c(Nc3ccncc3)nc3ccccc3c12"
3.31 µM

Moving on to the next compound: "c1cc2c(s1)SSSSS2"
33.8 µM

Moving on to the next compound: "O=C(c1ccc(Cl)cc1)c1no[n+]([O-])c1C(=O)c1ccc(Cl)cc1"
9.21 µM

Moving on to the next compound: "O=C1C=CC(=O)c2cc3cc(CO)ccc3cc21"
12.9 µM

Moving on to the next compound: "COc1cc2c(cc1I)-c1c(cc(OC)c(OC)c1OC)CC[C@@H]2NC(C)=O"
0.691 µM

Moving on to the next compound: COC1/C=C\C=C(/C)C(=O)NC2=CC(=O)C(N)=C(CC(C)CC(OC)C(O)C(C)C=C(C)C1OC(N)=O)C2=O (configuration not stated)
0.0806 µM

Moving on to the next compound: "Cn1ccc(=O)c2c(O)c3ccccc3c(O)c21"
> 100 µM

Moving on to the next compound: "C[n+]1c(-c2ccccc2)c2cc(N)ccc2c2ccccc21"
2.44 µM
